Test system: P12-Ichikawa
experimental.details: cell viability relative to DMSO control; higher = less cytotoxic
condition.label: RPMI 5 mM glucose + 10% dialyzed FBS; 48 h; 5.12 µM
assay.endpoint: cell viability (%)
One number for each entry, in %.

compound=NC(=O)N1CCC(CC(=O)N2CCC([C@H]3c4ncc(Br)cc4CCc4cc(Cl)cc(Br)c43)CC2)CC1 target=P12-Ichikawa recorded_result=78.9
compound=O=C(CCCN1CCC(O)(c2ccc(Cl)cc2)CC1)c1ccc(F)cc1 target=P12-Ichikawa recorded_result=119
compound=CN(C[C@@H]1COCCO1)[S+]([O-])(=O)NC2=CC3=C(C=C2)\C=C/C4=C(C=C(C=N4)C5=C[N](C)N=C5)C3=O target=P12-Ichikawa recorded_result=43.3

Here's the next entry for you.
// query Give the value of cell viability reported for the following: CC(O)(C[S+](=O)([O-])c1ccc(F)cc1)C(=O)Nc1ccc(C#N)c(C(F)(F)F)c1 (centres undefined)
// result 90.4

---

System: P12-Ichikawa
experimental.details: cell viability relative to DMSO control; higher = less cytotoxic
condition.label: RPMI 5 mM glucose + 10% FBS; 48 h; 0.0632 µM
So I've got a bunch of compounds here, and I need their cell viability values.
One number for each entry, in %.

Answered examples (5):
compound=COc1cc(C[C@@H](CO)[C@H](CO)Cc2ccc(O)c(OC)c2)ccc1O recorded_result=109
compound=CCOC(=O)c1c(CSc2ccccc2)n(C)c2cc(Br)c(O)c(CN(C)C)c12 recorded_result=128
compound=O=C(Nc1ccccc1)Nc1ccc(-c2ccc(C(=O)[C@@H]3CCC[C@H]3C(=O)O)cc2)cc1 recorded_result=116
compound=Cc1ccc(C(=O)Nc2ccc([S+](=O)([O-])O)c3cc([S+](=O)([O-])O)cc([S+](=O)([O-])O)c23)cc1NC(=O)c1cccc(NC(=O)Nc2cccc(C(=O)Nc3cc(C(=O)Nc4ccc([S+](=O)([O-])O)c5cc([S+](=O)([O-])O)cc([S+](=O)([O-])O)c45)ccc3C)c2)c1 recorded_result=88.6
compound=CCC(=O)N1CCN(CC1)C2=C(C=C(C=C2)N3C(=O)\C=C/C4=C3C5=CC(=CC=C5N=C4)C6=CN=C7C=CC=CC7=C6)C(F)(F)F recorded_result=68

Give cell viability for each of the items listed below.
1. CC(C)(C)NCC(O)c1ccc(O)c(CO)c1 (stereo not drawn)
2. C#CCC(Cc1cnc2nc(N)nc(N)c2n1)c1ccc(C(=O)N[C@@H](CCC(=O)O)C(=O)O)cc1 (stereo partly drawn)

// result
1: 111; 2: 44.8

// query Quickly give me recorded cell viability for CN1CCN(CC1)C2=CC3=C([NH]C(=N3)C/4=C(\N)C5=C(F)C=CC=C5NC4=O)C=C2
// result 88.8

---

Test system: NOMO1
experimental.details: cell viability relative to DMSO control; higher = less cytotoxic
condition.label: RPMI 5 mM glucose + 10% dialyzed FBS; 48 h; 0.0632 µM
assay.endpoint: cell viability (%)
Give bare numbers, in %.

Solved entries (count: 3):
compound=Cc1cc(/C=c2/sc3nc4ccccc4n3c2=O)c(C)n1-c1ccccc1 recorded_result=126
compound=CC[C@H](C)C(=O)O[C@H]1C[C@@H](C)\C=C2\C=C/[C@H](C)[C@H](CC[C@@H]3C[C@@H](O)CC(=O)O3)[C@@H]12 recorded_result=91.7
compound=CO[C@H]1C[C@@H]2CC[C@@H](C)[C@@](O)(O2)C(=O)C(=O)N2CCCC[C@H]2C(=O)O[C@H]([C@@H](C)C[C@@H]2CC[C@@H](O)[C@H](OC)C2)CC(=O)[C@H](C)/C=C(\C)[C@@H](O)[C@@H](OC)C(=O)[C@H](C)C[C@H](C)/C=C/C=C/C=C/1C recorded_result=108

Batch request: cell viability for each of the following compounds.
1. Clc1ccc(C(c2ccc(Cl)cc2)[n+]2ccn(CC(OCc3ccc(Cl)cc3Cl)c3ccc(Cl)cc3Cl)c2)cc1 (stereo not given)
2. C[C@@H](Cc1cc2c(c(C(N)=O)c1)N(CCCO)CC2)NCCOc1ccccc1OCC(F)(F)F
3. O=C(NOCC1CC1)c1ccc(F)c(F)c1Nc1ccc(I)cc1Cl
4. CN(CC(=O)N(Cc1ccc(C2CCCCC2)cc1)c1ccc(C(=O)O)c(O)c1)[S+](=O)([O-])c1c(F)c(F)c(F)c(F)c1F
5. Cc1nnc(C(C)C)n1[C@@H]1C[C@H]2CC[C@@H](C1)N2CC[C@H](NC(=O)C1CCC(F)(F)CC1)c1ccccc1

// result
112
126
92.4
93.8
93.2

Values compiled from the supplement of paper PMC11451515.
